Some molecules, each annotated with its measured solubility.
- Procedure Details: Drug solubility in natural oils
- Format: physicochemical
- Settings: oil or lipid; in castor oil
Measurement Kind: solubility

[[record]]
molecular_string = "Cc1cccc(C)c1OCC(=O)N[C@@H](Cc1ccccc1)[C@@H](O)C[C@H](Cc1ccccc1)NC(=O)[C@H](C(C)C)N1CCCNC1=O"
observed = "~25 mg/mL"

[[record]]
molecular_string = "O=C1Nc2ccc(Cl)cc2[C@@](C#CC2CC2)(C(F)(F)F)O1"
observed = "≥ 50 mg/mL"


----------
- Procedure Details: Drug solubility in natural oils
- Format: physicochemical
- Settings: oil or lipid; in peanut oil
Measurement Kind: solubility

[[record]]
molecular_string = "O=C1Nc2ccc(Cl)cc2[C@@](C#CC2CC2)(C(F)(F)F)O1"
observed = "≥ 50 mg/mL"

[[record]]
molecular_string = "Cc1cccc(C)c1OCC(=O)N[C@@H](Cc1ccccc1)[C@@H](O)C[C@H](Cc1ccccc1)NC(=O)[C@H](C(C)C)N1CCCNC1=O"
observed = "< 12 mg/mL"


----------
- Procedure Details: Caco-2 transcellular permeation model (transwell)
- Assay type: in vitro ADME, human
- Settings: human, Caco-2
Some compounds, each annotated with its measured efflux ratio at 1 h.
Measurement Kind: efflux ratio at 1 h

[[record]]
molecular_string = "O=C1Nc2ccc(Cl)cc2[C@@](C#CC2CC2)(C(F)(F)F)O1"
observed = 3.98

[[record]]
molecular_string = "Cc1cccc(C)c1OCC(=O)N[C@@H](Cc1ccccc1)[C@@H](O)C[C@H](Cc1ccccc1)NC(=O)[C@H](C(C)C)N1CCCNC1=O"
observed = 1.11


----------
- Procedure Details: Caco-2 transcellular permeation model (transwell)
- Assay type: in vitro ADME, human
- Settings: human, Caco-2
Measurement Kind: efflux ratio at 2 h

[[record]]
molecule = "O=C1Nc2ccc(Cl)cc2[C@@](C#CC2CC2)(C(F)(F)F)O1 [EFV, efavirenz]"
observed = 3.11

[[record]]
molecule = "Cc1cccc(C)c1OCC(=O)N[C@@H](Cc1ccccc1)[C@@H](O)C[C@H](Cc1ccccc1)NC(=O)[C@H](C(C)C)N1CCCNC1=O [LPV, lopinavir]"
observed = 4.78


----------
- Procedure Details: Drug solubility in natural oils
- Format: physicochemical
- Settings: oil or lipid; in soybean oil
Measurement Kind: solubility

[[record]]
compound = "Cc1cccc(C)c1OCC(=O)N[C@@H](Cc1ccccc1)[C@@H](O)C[C@H](Cc1ccccc1)NC(=O)[C@H](C(C)C)N1CCCNC1=O [LPV, lopinavir]"
observed = "< 12 mg/mL"

[[record]]
compound = "O=C1Nc2ccc(Cl)cc2[C@@](C#CC2CC2)(C(F)(F)F)O1 [EFV, efavirenz]"
observed = "≥ 50 mg/mL"


Origin of measurements: paper PMC9079742
